Measured values drawn from paper PMC10739630 for this set.

target: DENV2 NS5 (Dengue virus 2 Thailand/16681/84, UniProt P29990); assay: SYTO […] fluorescence RdRp assay, A2-primed, poly(U) template; assay type: biochemical; conditions: read-out: IC50 ^a (μM, mean ± std. dev.)
Sequence (P29990 2492-3391 limits assumed): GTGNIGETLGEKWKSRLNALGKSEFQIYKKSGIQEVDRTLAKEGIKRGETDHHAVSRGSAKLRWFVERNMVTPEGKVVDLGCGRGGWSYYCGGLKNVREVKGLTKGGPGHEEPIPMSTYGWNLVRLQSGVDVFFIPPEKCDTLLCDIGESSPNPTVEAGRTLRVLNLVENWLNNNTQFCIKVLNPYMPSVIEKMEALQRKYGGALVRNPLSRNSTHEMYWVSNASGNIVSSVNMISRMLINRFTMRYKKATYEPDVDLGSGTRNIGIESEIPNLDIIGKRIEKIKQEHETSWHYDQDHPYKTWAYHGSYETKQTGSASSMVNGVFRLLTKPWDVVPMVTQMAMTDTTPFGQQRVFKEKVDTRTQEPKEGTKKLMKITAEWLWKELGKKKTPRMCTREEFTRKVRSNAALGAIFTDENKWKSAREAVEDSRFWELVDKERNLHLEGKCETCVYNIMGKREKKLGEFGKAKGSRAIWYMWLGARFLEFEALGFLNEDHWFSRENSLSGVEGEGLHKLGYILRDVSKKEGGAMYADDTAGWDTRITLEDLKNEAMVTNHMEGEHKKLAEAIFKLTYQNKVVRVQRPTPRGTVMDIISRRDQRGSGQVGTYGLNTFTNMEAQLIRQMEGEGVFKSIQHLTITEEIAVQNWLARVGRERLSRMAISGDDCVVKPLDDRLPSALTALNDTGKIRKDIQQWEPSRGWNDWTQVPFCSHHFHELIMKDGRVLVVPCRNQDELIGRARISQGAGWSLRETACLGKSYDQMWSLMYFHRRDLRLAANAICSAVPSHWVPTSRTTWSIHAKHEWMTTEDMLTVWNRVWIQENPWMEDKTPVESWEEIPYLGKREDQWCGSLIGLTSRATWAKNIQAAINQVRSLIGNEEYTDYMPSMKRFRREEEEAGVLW
Below, each entry is listed alongside its reported IC50.
Note: unit µM is implicit; provide only the numeric part.

Nc1ncnc2c1ncn2[C@@H]1O[C@H](COP(=O)(O)OP(=O)(O)OP(=O)(O)O)C[C@H]1O [3′-dATP, reference compound] : 0.48

Qu. IC50 for Nc1ncnc2c([C@@H]3N[C@H](COP(=O)(O)OP(=O)(O)OP(=O)(O)O)[C@@H](O)[C@H]3O)c[nH]c12 ?
Ans. 42
